Data origin, for the record: ChEMBL document CHEMBL3301472

assay: MMV: MTT Cytotoxicity Assay Day 3 pi, U87-CD4-CXCR4 cells, % cell death @ 5mM compound; assay type: toxicity, cell-based; conditions: human, u87-cd4-cxcr4, 5000 µM
MEASURE NAME: % Cell Death
Numbers only.

molecule="Oc1ccccc1CN1CCC2(CCCN(Cc3ccccc3F)C2)C1 (stereo not drawn)" result=15

Batch lookup, % Cell Death per entry.
1. O=C(Cc1ccccc1)NC(c1ccc(Cl)cc1)c1c(O)ccc2ccccc12 (stereo not drawn)
2. COc1ccc(C2c3ccc4ccccc4c3Oc3ncn(CCCN(C)C)c(=N)c32)cc1 (stereo not drawn)

Reply text:
1: 23; 2: 39

----------
assay: MMV: MTT Cytotoxicity Assay Day 7 pi of Assay #6 (compound washed out Day 1 pi), U87-CD4-CCR5 cells, % cell death @ 5mM compound; format: toxicity, cell-based; settings: human, u87-cd4-ccr5, 5000 µM
Outcome: rule met for % Cell Death of at least 20; rule not met for anything lower.

Some entries whose results are on file:
compound="CCOc1cc(Br)c(C(C)NC(=O)c2cccc(OC)c2)cc1OCC (stereo not drawn)" label_value="rule not met"
compound="O=C1c2ccccc2C2=Nc3ccccc3SC(c3cccc(F)c3)C12 (stereo not drawn)" label_value="rule not met"
compound=O=C(Nc1ccc(Br)cc1)Nc1cccc(Cl)c1 label_value="rule not met"

Inquiry: API: above_or_equal(metric=% Cell Death, cutoff=20) for item O=C(Nc1ccc(-c2nc3cc4ccccc4cc3[nH]2)cc1)c1cccc(Br)c1
Reply text: rule not met

Inquiry: API: above_or_equal(metric=% Cell Death, cutoff=20) for item CCCCOc1ccc(C(=O)Nc2cc(C)on2)cc1
Reply text: rule not met

Inquiry: API: above_or_equal(metric=% Cell Death, cutoff=20) for item CCOC(=O)C1=C(C)N=c2sc(=Cc3ccccc3O)c(=O)n2C1c1ccc(OC)c2ccccc12 (stereo not drawn)
Reply text: rule met

Inquiry: API: above_or_equal(metric=% Cell Death, cutoff=20) for item O=C(Nc1ccccc1O)c1ccc(Oc2cccc(C(=O)Nc3ccccc3O)c2)cc1
Reply text: rule not met

Inquiry: API: above_or_equal(metric=% Cell Death, cutoff=20) for item COc1ccc(CCN2CCC(CN(C)Cc3cnn(-c4ccccc4)c3)CC2)cc1
Reply text: rule met

----------
assay: MMV: MTT Cytotoxicity Assay Day 3 pi, U87-CD4-CXCR4 cells, % cell death @ 5mM compound; type: toxicity, cell-based; details: human, u87-cd4-cxcr4, 5000 µM
Output schema: class label derived from % Cell Death. Mapping: L = under 20, M = from 20 up to 50, H = 50 and over

compound=Br.Cc1ccc(C)c(-c2csc(Nc3ccc(C)c(C)c3)n2)c1 label_value=M

Inquiry: Lab note: sort Cc1ccccc1OCCSc1nc2ccc(NC(=O)c3cccs3)cc2s1 into the matching % Cell Death band.
Reply text: H

Inquiry: Lab note: sort COc1ccc(N2CCN(C(CNC(=O)C3CCCCC3)c3ccc4c(c3)OCO4)CC2)cc1 (stereo unspecified) into the matching % Cell Death band.
Reply text: H

Inquiry: Lab note: sort CCOc1ccc(Nc2ccnc3cc(Cl)ccc23)cc1 into the matching % Cell Death band.
Reply text: H

Inquiry: Lab note: sort COc1nc(Nc2ccc(C(C)C)cc2)nc(OC)n1 into the matching % Cell Death band.
Reply text: M

Inquiry: Lab note: sort CCCCNCC(O)(c1ccc(Cl)cc1)c1ccc(Cl)cc1 into the matching % Cell Death band.
Reply text: M

----------
test: MMV: MTT Cytotoxicity Assay Day 7 pi of Assay #10 (NO washout), U87-CD4-CCR5 cells, % cell death @ 5mM compound; type: toxicity, cell-based; conditions: human, u87-cd4-ccr5, 5000 µM
MEASURE NAME: % Cell Death

Here are 4 molecules together with their reported answers.
molecule=Cc1cc(N2CCN(C3CCCC3)CC2)n2c(nc3ccccc32)c1C#N measure_name="% Cell Death" result=35
molecule=CCN1CCN(Cc2ccc(NC(=O)c3cc4ccc5cccnc5c4[nH]3)cc2)CC1 measure_name="% Cell Death" result=9
molecule=Cc1cc(N2CCCC2)nc(Nc2ccc(NC(=O)CCc3ccccc3)cc2)n1 measure_name="% Cell Death" result=0
molecule=Cc1cc(C=C2SC(=Nc3ccccc3)N(C3CCCC3)C2=O)c(C)n1-c1ccc(Cl)cc1 measure_name="% Cell Death" result=140

Batch lookup, % Cell Death per entry.
1. c1ccc2c(NCCc3c[nH]c4ccccc34)c3ccccc3nc2c1
2. Cc1ccc(-c2cc3c(SCC(=O)Nc4cc(C(F)(F)F)ccc4Cl)nccn3n2)cc1
3. CCN(CC)CCNc1ccnc2cc(Cl)ccc12
4. O=C(CCc1ccco1)NC1CCN(CC2(c3ccc(Cl)cc3)CCC2)CC1
5. Nc1ccc(-c2nc3cc(Cc4ccc5[nH]c(-c6ccc(N)cc6)nc5c4)ccc3[nH]2)cc1
6. CCOc1ccccc1CN1CCc2nc3cc(C(C)(C)C)nn3c(O)c2C1
7. Cc1ccc(Cn2c(N3CCC(C(=O)NCc4cccs4)CC3)nc3ccccc32)cc1

Reply text:
20
24
17
109
98
95
18

Batch lookup, % Cell Death per entry.
1. COc1ccc(CN2CCCC(C(=O)c3ccc(C(F)(F)F)cc3)C2)c(O)c1 (stereo not given)
2. Cc1ccc(Cl)cc1N1CCN(CCCNC(=O)C2CCN(c3nc4ccccc4[nH]3)CC2)CC1
3. COc1ccc(C(=O)C2CC2c2ccc(Cl)cc2)cc1 (stereo not given)
4. CSc1ccccc1C(=O)Nc1nc(-c2ccccn2)cs1
5. CC1CN(C(=O)c2sc3ccccc3c2Cl)CC(C)O1 (stereo not given)
6. O=C(NNc1cc(N2CCCC2)nc(N2CCCC2)n1)c1ccccc1
7. CCCCCn1c(=N)n(CC(O)COc2cccc(C)c2)c2ccccc21.Cl (stereo not given)

Reply text:
105
91
32
3
124
27
115

Batch lookup, % Cell Death per entry.
1. CCOc1c(Cl)cc(CNC(C)C(O)c2ccccc2)cc1OC (stereo not given)
2. CCCCCCc1cc2cc(-c3nc4ccccc4[nH]3)c(=Nc3ccccc3C)oc2cc1O
3. O=C(Nc1cccc(-c2nc3ccccc3[nH]2)c1)c1cccc(NC(=O)c2ccco2)c1
4. COc1ccc(C=C2SC(Nc3ccc(F)cc3)=NC2=O)c(OC)c1
5. CN(C)c1ccc(N=Cc2ccc(N3CCOCC3)cc2)cc1
6. COc1ccc(CNC(=O)c2cc3c(=O)n4ccccc4nc3n(CCc3ccccc3)c2=N)cc1

Reply text:
1: 98; 2: 44; 3: 20; 4: 96; 5: 135; 6: 0

----------
test: MMV: MTT Cytotoxicity Assay Day 7 pi of Assay #11 (NO washout), U87-CD4-CXCR4 cells, % cell death @ 5mM compound; assay type: toxicity, cell-based; conditions: human, u87-cd4-cxcr4, 5000 µM
MEASURE NAME: % Cell Death
Give bare numbers.

Here are 9 compounds together with their reported answers.
compound="CCOc1ccc(CN2CCN(CC(O)COc3ccc(OCC(O)CN4CCN(Cc5ccc(OCC)cc5)CC4)cc3)CC2)cc1 (stereo not given)" measure_name="% Cell Death" result=-7
compound=COc1ccc(-c2nonc2NC(=O)c2cccc(Cl)c2)cc1OC measure_name="% Cell Death" result=97
compound=CCc1ccc(Nc2cc(C)c3ccc(O)cc3n2)cc1.Cl measure_name="% Cell Death" result=102
compound=Cc1ccc(-c2cc3nc4c(c(O)n3n2)CCCC4)cc1 measure_name="% Cell Death" result=97
compound=COc1cccc(Nc2nc(N)c3ccccc3n2)c1.Cl measure_name="% Cell Death" result=-77
compound=Cc1ccc(C)c(Cn2c(N3CCC(C(=O)NCc4cccs4)CC3)nc3ccccc32)c1 measure_name="% Cell Death" result=47
compound=COc1cccc(Cn2c(Oc3ccccc3)nc3c2c(=O)n(C)c(=O)n3C)c1 measure_name="% Cell Death" result=32
compound=Cc1cc(NC(=O)c2ccc(-c3ccccc3)cc2)no1 measure_name="% Cell Death" result=-1
compound=COc1ccc(CNC2CCN(c3ccc(NC(=O)c4cccc(Cl)c4)cc3)CC2)cc1OC measure_name="% Cell Death" result=-37

In the following, a different compound is considered.
Inquiry: What value of measured % Cell Death is listed for CCOC(=O)c1cn(CC)c2cc(N(C)CCc3ccc(OC)c(OC)c3)c(F)cc2c1=O ?
Reply text: -17

----------
test: MMV: MTT Cytotoxicity Assay Day 3 pi, U87-CD4-CXCR4 cells, % cell death @ 5mM compound; assay type: toxicity, cell-based; conditions: human, u87-cd4-cxcr4, 5000 µM
MEASURE NAME: % Cell Death

compound="COCCNCC(O)Cn1c2ccc(Cl)cc2c2cc(Cl)ccc21 (stereo unspecified)" measure_name="% Cell Death" result=30
compound=Cc1[nH]c(-c2ccc(F)cc2)cc1C(=O)NC1CCN(Cc2ccccc2)CC1 measure_name="% Cell Death" result=41
compound=CCCOCc1cc(CN2CCN(c3cccc(Cl)c3)CC2)c(O)c2ncccc12 measure_name="% Cell Death" result=31
compound=O=C(NCc1ccco1)C1CCN(S(=O)(=O)c2ccc(Br)cc2)CC1 measure_name="% Cell Death" result=32
compound="CCCN(CCC)CC(O)COc1ccccc1C(=O)Nc1ccccc1 (stereo unspecified)" measure_name="% Cell Death" result=22

Batch lookup, % Cell Death per entry.
1. Cc1cc(=O)oc2c1ccc1oc(C(=O)c3ccccc3)c(C)c12
2. COCCn1c(C)nc2ccccc2c1=O
3. CCN(CC)c1ccc(NC(=O)c2cccs2)cc1
4. O=C(Nc1ccc(C23CC4CC(CC(c5ccccc5)(C4)C2)C3)cc1)c1cccs1
5. CN(C)c1ccc(C(O)(c2ccc(N(C)C)cc2)c2ccc(N(C)C)cc2)cc1

Reply text:
[29, 19, 56, 95, 98]

Inquiry: What value of measured % Cell Death is listed for CCN(Cc1ccccc1)C1CCN(Cc2cc(Br)ccc2O)CC1.O=C(O)C(=O)O ?
Reply text: 27
